Molecular target: T1, human IL-12 (human, UniProt P29459 23-219; P29460 23-328)
T1 construct: recombinant human IL-12 heterodimer (p35/p40, disulfide-linked); also called hIL-12; rhIL-12
T1 sequence (looked up) 1: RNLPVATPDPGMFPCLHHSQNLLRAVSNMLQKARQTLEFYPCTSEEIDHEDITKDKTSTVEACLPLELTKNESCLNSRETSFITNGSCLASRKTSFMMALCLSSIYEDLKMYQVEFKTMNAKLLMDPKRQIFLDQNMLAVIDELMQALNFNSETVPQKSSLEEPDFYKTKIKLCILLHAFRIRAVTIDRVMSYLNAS
T1 sequence (looked up) 2: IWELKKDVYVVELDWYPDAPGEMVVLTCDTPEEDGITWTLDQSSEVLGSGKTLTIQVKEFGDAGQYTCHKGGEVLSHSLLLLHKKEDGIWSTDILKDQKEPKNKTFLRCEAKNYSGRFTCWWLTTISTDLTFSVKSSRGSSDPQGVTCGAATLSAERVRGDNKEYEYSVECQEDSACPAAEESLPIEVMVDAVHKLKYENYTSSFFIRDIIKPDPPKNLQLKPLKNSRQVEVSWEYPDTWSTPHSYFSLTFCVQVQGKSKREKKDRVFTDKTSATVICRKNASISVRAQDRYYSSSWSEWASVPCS
Test: SPR (BIAcore), IL-12 chip
PROPERTY_NAME: koff (s⁻¹)
All answers are understood in s⁻¹, so give the number only.

[Q] Output measured koff for this item: Y17 (scFv, V domains shown, scFv) VH: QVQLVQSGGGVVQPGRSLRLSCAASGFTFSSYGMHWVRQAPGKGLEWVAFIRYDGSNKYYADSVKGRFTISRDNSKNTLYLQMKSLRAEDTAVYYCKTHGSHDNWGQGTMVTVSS VL: SYVLTQPPSVSGTPGQRVTISCSGGRSNIGSNTVKWYQQLPGTAPKLLIYGNDQRPSGVPDRFSGSKSGTSASLAITGVQAEDEADYYCQSYDRGSAPMINFGTGTKVTVL
[A] 8.9e-05

[Q] Output measured koff for this item: 170-35 (scFv, V domains shown, scFv) VH: QVQLVQSGGGVVQPGRSLRLSCAASGFTFSSYGMHWVRQAPGKGLEWVAFIRYDGSNKYYADSVKGRFTISRDNSKNTLYLQMKSLRAEDTAVYYCATHGSQDNWGQGTMVTVSS VL: SYVLTQPPSVSGTPGQRVTISCSGGRSNIGSNTVKWYQQLPGTAPKLLIYGNDQRPSGVPDRFSGSKSGTSASLAITGVQAEDEADYYCQSYDRGFTGSRVFGTGTKVTVL
[A] 1e-05

[Q] Output measured koff for this item: M2 A4 (scFv, V domains shown, scFv) VH: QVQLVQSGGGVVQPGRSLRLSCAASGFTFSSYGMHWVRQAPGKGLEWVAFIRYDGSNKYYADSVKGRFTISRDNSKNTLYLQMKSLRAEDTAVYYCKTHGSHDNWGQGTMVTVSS VL: SYVLTQPPSVSGTPGQRVTISCSGGRSNIGSNTVKWYQQLPGTAPKLLIYGNDQRPSGVPDRFSGSKSGTSASLAITGVQAEDEADYYCQSYDSGFPGSRVFGTGTKVTVL
[A] 0.00849

[Q] Output measured koff for this item: 78-34 (scFv, V domains shown, scFv) VH: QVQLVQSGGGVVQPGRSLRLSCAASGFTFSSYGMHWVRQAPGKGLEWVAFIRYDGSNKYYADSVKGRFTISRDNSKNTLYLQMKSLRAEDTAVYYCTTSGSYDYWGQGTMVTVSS VL: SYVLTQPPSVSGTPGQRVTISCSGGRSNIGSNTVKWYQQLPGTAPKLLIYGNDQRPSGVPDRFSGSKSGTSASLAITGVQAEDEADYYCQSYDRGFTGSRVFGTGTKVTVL
[A] 0.0164

[Q] Output measured koff for this item: 177-G6 (scFv, V domains shown, scFv) VH: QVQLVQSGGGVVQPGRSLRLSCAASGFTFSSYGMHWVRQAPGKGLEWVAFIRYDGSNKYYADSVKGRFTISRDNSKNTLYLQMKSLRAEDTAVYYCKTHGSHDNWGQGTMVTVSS VL: SYVLTQPPSVSGTPGQRVTISCSGGRSNIGSNTVKWYQQLPGTAPKLLIYGNDQRPSGVPDRFSGSKSGTSASLAITGVQAEDEADYYCQSYDRGTHPTMIFGTGTKVTVL
[A] 0.00055
